All figures here come from patent US7118895B2.

System: Crude diglycosidase
Test: Examination of temperature in the conversion into isoflavone aglycons by diglycosidase using soybean materials
Type: biochemical, Penicillium multicolor IAM7153
Conditions: 65° C., heat treatment of enzyme yes, reaction time 6 h
Recorded Decomposition efficiency of daidzin family in concentrated soybean protein, one value per entry.
reported.metric: Decomposition efficiency of daidzin family in concentrated soybean protein (%)

compound	quantitative.result
CC(=O)OC[C@H]1O[C@@H](Oc2ccc3c(=O)c(-c4ccc(O)cc4)coc3c2)[C@H](O)[C@@H](O)[C@@H]1O [acetyldaidzin, 6″-O-acetyldaidzin]	43.6
O=c1c(-c2ccc(O)cc2)coc2cc(O[C@@H]3O[C@H](CO)[C@@H](O)[C@H](O)[C@H]3O)ccc12 [daidzin]	53.2
O=c1c(-c2ccc(O)cc2)coc2cc(O)ccc12 [daidzein]	3.2

* * *

Quick reference for Decomposition efficiency of daidzin family in concentrated soybean protein among some compounds
System: Crude diglycosidase
Assay: Examination of temperature in the conversion into isoflavone aglycons by diglycosidase using soybean materials
Assay type: biochemical, Penicillium multicolor IAM7153
Conditions: 55° C., heat treatment of enzyme yes, reaction time 6 h
reported.metric: Decomposition efficiency of daidzin family in concentrated soybean protein (%)

smiles.code	tested.target	quantitative.result
CC(=O)OC[C@H]1O[C@@H](Oc2ccc3c(=O)c(-c4ccc(O)cc4)coc3c2)[C@H](O)[C@@H](O)[C@@H]1O	Crude diglycosidase	42.3
O=c1c(-c2ccc(O)cc2)coc2cc(O)ccc12	Crude diglycosidase	3.2
O=c1c(-c2ccc(O)cc2)coc2cc(O[C@@H]3O[C@H](CO)[C@@H](O)[C@H](O)[C@H]3O)ccc12	Crude diglycosidase	54.6

* * *

Tested on: Crude diglycosidase
Test: Examination of temperature in the conversion into isoflavone aglycons by diglycosidase using soybean materials
Assay type: biochemical, Penicillium multicolor IAM7153
Parameters: concentration or dose not given beside the values
Conditions: 30 °C; heat treatment of enzyme: no; 6 h
reported.metric: Decomposition efficiency of daidzin family in soymilk (%)

smiles.code	output.unit	quantitative.result
O=C(O)CC(=O)OC[C@H]1O[C@@H](Oc2ccc3c(=O)c(-c4ccc(O)cc4)coc3c2)[C@H](O)[C@@H](O)[C@@H]1O	%	46.2
O=c1c(-c2ccc(O)cc2)coc2cc(O)ccc12	%	53.8

* * *

System: Crude diglycosidase
Assay: Examination of pH in the conversion into isoflavone aglycons by diglycosidase using soybean materials
Format: biochemical, Penicillium multicolor IAM7153
Conditions: pH5.1; heat treatment of enzyme: no; reaction time 0 h
Procedure: A substrate solution of 450 μL was prepared by suspending 50 mg of each soybean material (roasted soy flour (manufactured by Fuji Shokuryo K.K.), soymilk (manufactured by Gitoh Shokuhin K.K.), defatted soybean (manufactured by Fuji Seiyu K.K.), concentrated soybean protein (manufactured by Fuji Seiyu K.K.)), and adjusting the pH to 2 to 11 with hydrochloric acid or sodium hydroxide. […]
reported.metric: Decomposition efficiency of daidzin family in concentrated soybean protein (%)

compound	quantitative.result
O=c1c(-c2ccc(O)cc2)coc2cc(O[C@@H]3O[C@H](CO)[C@@H](O)[C@H](O)[C@H]3O)ccc12 [daidzin]	52.5
O=c1c(-c2ccc(O)cc2)coc2cc(O)ccc12 [daidzein]	3.0
CC(=O)OC[C@H]1O[C@@H](Oc2ccc3c(=O)c(-c4ccc(O)cc4)coc3c2)[C@H](O)[C@@H](O)[C@@H]1O [acetyldaidzin, 6″-O-acetyldaidzin]	44.6

* * *

System: Crude diglycosidase
Experiment: Examination of pH in the conversion into isoflavone aglycons by diglycosidase using soybean materials
Assay type: biochemical, Penicillium multicolor IAM7153
Conditions: pH7.2; heat treatment of enzyme: no; reaction time 3 h
reported.metric: Decomposition efficiency of daidzin family in soymilk

smiles.code	result
O=C(O)CC(=O)OC[C@H]1O[C@@H](Oc2ccc3c(=O)c(-c4ccc(O)cc4)coc3c2)[C@H](O)[C@@H](O)[C@@H]1O	52.4%
O=c1c(-c2ccc(O)cc2)coc2cc(O[C@@H]3O[C@H](CO)[C@@H](O)[C@H](O)[C@H]3O)ccc12	not detected
CC(=O)OC[C@H]1O[C@@H](Oc2ccc3c(=O)c(-c4ccc(O)cc4)coc3c2)[C@H](O)[C@@H](O)[C@@H]1O	not detected
O=c1c(-c2ccc(O)cc2)coc2cc(O)ccc12	47.6%

* * *

Tested on: Crude diglycosidase
Experiment: Examination of substrate concentration in the conversion into isoflavone aglycons by diglycosidase using soybean materials;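 note: percent of the isoflavone family total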
Format: biochemical, Penicillium multicolor IAM7153
Conditions: roasted soy flour, substrate concentration 20%, heat treatment of enzyme no, reaction time 6 h
reported.metric: Decomposition efficiency: ratio of each glycoside/aglycon within its isoflavone family

smiles.code	result
COc1cc2c(=O)c(-c3ccc(O)cc3)coc2cc1O[C@@H]1O[C@H](CO)[C@@H](O)[C@H](O)[C@H]1O	not detected
CC(=O)OC[C@H]1O[C@@H](Oc2ccc3c(=O)c(-c4ccc(O)cc4)coc3c2)[C@H](O)[C@@H](O)[C@@H]1O	25.1%
O=c1c(-c2ccc(O)cc2)coc2cc(O[C@@H]3O[C@H](CO)[C@@H](O)[C@H](O)[C@H]3O)cc(O)c12	not detected
O=c1c(-c2ccc(O)cc2)coc2cc(O[C@@H]3O[C@H](CO)[C@@H](O)[C@H](O)[C@H]3O)ccc12	not detected
COc1cc2c(=O)c(-c3ccc(O)cc3)coc2cc1O	90.0%
O=C(O)CC(=O)OC[C@H]1O[C@@H](Oc2cc(O)c3c(=O)c(-c4ccc(O)cc4)coc3c2)[C@H](O)[C@@H](O)[C@@H]1O	not detected
O=C(O)CC(=O)OC[C@H]1O[C@@H](Oc2ccc3c(=O)c(-c4ccc(O)cc4)coc3c2)[C@H](O)[C@@H](O)[C@@H]1O	not detected

* * *

Decomposition efficiency of daidzin family in soymilk: recorded values
Test system: Crude diglycosidase
Assay: Examination of temperature in the conversion into isoflavone aglycons by diglycosidase using soybean materials
Type: biochemical, Penicillium multicolor IAM7153
Parameters: concentration or dose not given beside the values
Details: 80 °C; heat treatment of enzyme: no; 1 h
reported.metric: Decomposition efficiency of daidzin family in soymilk

molecule	result
O=c1c(-c2ccc(O)cc2)coc2cc(O[C@@H]3O[C@H](CO)[C@@H](O)[C@H](O)[C@H]3O)ccc12 [daidzin]	8.9%
O=c1c(-c2ccc(O)cc2)coc2cc(O)ccc12 [daidzein]	40.3%
O=C(O)CC(=O)OC[C@H]1O[C@@H](Oc2ccc3c(=O)c(-c4ccc(O)cc4)coc3c2)[C@H](O)[C@@H](O)[C@@H]1O [malonyldaidzin, 6″-O-malonyldaidzin]	50.8%

* * *

Tested on: Crude diglycosidase
Assay: Examination of pH in the conversion into isoflavone aglycons by diglycosidase using soybean materials
Type: biochemical, Penicillium multicolor IAM7153
Conditions: pH7.2; heat treatment of enzyme: yes; reaction time 6 h
Recorded measurements of Decomposition efficiency of daidzin family in soymilk, one per entry
reported.metric: Decomposition efficiency of daidzin family in soymilk (%)

smiles.code	quantitative.result
O=C(O)CC(=O)OC[C@H]1O[C@@H](Oc2ccc3c(=O)c(-c4ccc(O)cc4)coc3c2)[C@H](O)[C@@H](O)[C@@H]1O	48.3
O=c1c(-c2ccc(O)cc2)coc2cc(O)ccc12	10.2
O=c1c(-c2ccc(O)cc2)coc2cc(O[C@@H]3O[C@H](CO)[C@@H](O)[C@H](O)[C@H]3O)ccc12	41.5

* * *

System: Crude diglycosidase
Test: Examination of temperature in the conversion into isoflavone aglycons by diglycosidase using soybean materials
Type: biochemical, Penicillium multicolor IAM7153
Design: concentration or dose not given beside the values
Settings: 65 °C; heat treatment of enzyme: no; 3 h
Below, each of the molecules is paired with its reported Decomposition efficiency of daidzin family in roasted soy flour value.
reported.metric: Decomposition efficiency of daidzin family in roasted soy flour (%)

smiles.code	quantitative.result
CC(=O)OC[C@H]1O[C@@H](Oc2ccc3c(=O)c(-c4ccc(O)cc4)coc3c2)[C@H](O)[C@@H](O)[C@@H]1O	40.2
O=c1c(-c2ccc(O)cc2)coc2cc(O)ccc12	59.8

* * *

Test system: Diglycosidase derived from A. fumigatus
Assay: Reactivity toward various isoflavone glycosides (HPLC)
Assay type: biochemical, Aspergillus fumigatus
Set-up: unit not given here
Settings: Reaction time 0 h; 55 °C, pH 4.0

smiles.code	aglycon
O=C(O)CC(=O)OC[C@H]1O[C@@H](Oc2ccc3c(=O)c(-c4ccc(O)cc4)coc3c2)[C@H](O)[C@@H](O)[C@@H]1O	0
COc1cc2c(=O)c(-c3ccc(O)cc3)coc2cc1O[C@@H]1O[C@H](COC(C)=O)[C@@H](O)[C@H](O)[C@H]1O	0
O=C(O)CC(=O)OC[C@H]1O[C@@H](Oc2cc(O)c3c(=O)c(-c4ccc(O)cc4)coc3c2)[C@H](O)[C@@H](O)[C@@H]1O	0
COc1cc2c(=O)c(-c3ccc(O)cc3)coc2cc1O[C@@H]1O[C@H](CO)[C@@H](O)[C@H](O)[C@H]1O	0
O=c1c(-c2ccc(O)cc2)coc2cc(O[C@@H]3O[C@H](CO)[C@@H](O)[C@H](O)[C@H]3O)cc(O)c12	0
O=c1c(-c2ccc(O)cc2)coc2cc(O[C@@H]3O[C@H](CO)[C@@H](O)[C@H](O)[C@H]3O)ccc12	0.9
